test: Stability of example compounds in solid form (HPLC); assay type: physicochemical; conditions: solid, amber vial under Ar, 2 weeks, 0° C.
Measured attribute: Solid (%) 2 week 0° C.
Your answer should be a plain number; it is taken to be in %.

Worked examples follow.
1. CC(C)(C)OC(=O)[C@@H](CCCOS(=O)(=O)c1cccc2ccccc12)C[C@H](NC(c1ccccc1)(c1ccccc1)c1ccccc1)C(=O)OC(C)(C)C: 99.0
2. CC(C)(C)OC(=O)[C@@H](CCCOS(=O)(=O)c1ccc(-c2ccccc2)cc1)C[C@H](NC(c1ccccc1)(c1ccccc1)c1ccccc1)C(=O)OC(C)(C)C: 98.6
3. CC(C)(C)OC(=O)[C@@H](CCCOS(=O)(=O)c1ccc(-c2ccc(S(=O)(=O)OCCC[C@@H](C[C@H](NC(c3ccccc3)(c3ccccc3)c3ccccc3)C(=O)OC(C)(C)C)C(=O)OC(C)(C)C)cc2)cc1)C[C@H](NC(c1ccccc1)(c1ccccc1)c1ccccc1)C(=O)OC(C)(C)C: 98.0
4. CC(C)(C)OC(=O)[C@@H](CCCOS(=O)(=O)c1ccc([N+](=O)[O-])c(C(F)(F)F)c1)C[C@H](NC(c1ccccc1)(c1ccccc1)c1ccccc1)C(=O)OC(C)(C)C: 95.0

Request: Quick check: Solid (%) 2 week 0° C. of `CC(C)(C)OC(=O)[C@@H](CCCOS(=O)(=O)c1ccc([N+](=O)[O-])cc1)C[C@H](NC(c1ccccc1)(c1ccccc1)c1ccccc1)C(=O)OC(C)(C)C` ?
Response: 99.3

---

experiment: Stability of example compounds in solid form (HPLC); format: physicochemical; conditions: solid, amber vial under Ar, 2 weeks, 0° C.
Measured Solid (%) 2 week 0° C., listed per entry.
Just the number please, in %, no unit attached.

These recorded examples may help you get a feel for the data.
1) CC(C)(C)OC(=O)[C@@H](CCCOS(=O)(=O)c1cccc([N+](=O)[O-])c1)C[C@H](NC(c1ccccc1)(c1ccccc1)c1ccccc1)C(=O)OC(C)(C)C [Ib]: 94.6
2) CC(C)(C)OC(=O)[C@@H](CCCOS(=O)(=O)c1cccc2cccnc12)C[C@H](NC(c1ccccc1)(c1ccccc1)c1ccccc1)C(=O)OC(C)(C)C [If]: 89.0

Shifting focus to the molecule that follows.
Request: What value of Solid (%) 2 week 0° C. has been reported for the following molecule? CC(C)(C)OC(=O)[C@@H](CCCOS(=O)(=O)c1c(Cl)cc(Cl)cc1Cl)C[C@H](NC(c1ccccc1)(c1ccccc1)c1ccccc1)C(=O)OC(C)(C)C [Ii]
Response: 97.0

---

test: Stability of example compounds in solid form (HPLC); assay type: physicochemical; settings: solid, amber vial under Ar, 3 weeks, −20° C.
Recorded Solid (%) 3 week −20° C. for the following molecules
Your answer should be a plain number; it is taken to be in %.

As a guide, the following entries are already answered.
1) CC(C)(C)OC(=O)[C@@H](CCCOS(=O)(=O)c1ccc2ccccc2c1)C[C@H](NC(c1ccccc1)(c1ccccc1)c1ccccc1)C(=O)OC(C)(C)C: 99.8
2) CC(C)(C)OC(=O)[C@@H](CCCOS(=O)(=O)c1ccc(-c2ccc(S(=O)(=O)OCCC[C@@H](C[C@H](NC(c3ccccc3)(c3ccccc3)c3ccccc3)C(=O)OC(C)(C)C)C(=O)OC(C)(C)C)cc2)cc1)C[C@H](NC(c1ccccc1)(c1ccccc1)c1ccccc1)C(=O)OC(C)(C)C: 97.9
3) CC(C)(C)OC(=O)[C@@H](CCCOS(=O)(=O)c1cccc2ccccc12)C[C@H](NC(c1ccccc1)(c1ccccc1)c1ccccc1)C(=O)OC(C)(C)C: 98.6
4) CC(C)(C)OC(=O)[C@@H](CCCOS(=O)(=O)c1ccc([N+](=O)[O-])cc1)C[C@H](NC(c1ccccc1)(c1ccccc1)c1ccccc1)C(=O)OC(C)(C)C: 99.0
5) CC(C)(C)OC(=O)[C@@H](CCCOS(=O)(=O)c1ccc(-c2ccccc2)cc1)C[C@H](NC(c1ccccc1)(c1ccccc1)c1ccccc1)C(=O)OC(C)(C)C: 96.9

Request: I'd like to know its Solid (%) 3 week −20° C.. The molecule in question is `CC(C)(C)OC(=O)[C@@H](CCCOS(=O)(=O)c1cccc([N+](=O)[O-])c1)C[C@H](NC(c1ccccc1)(c1ccccc1)c1ccccc1)C(=O)OC(C)(C)C`
Response: 93.7

Request: Find the recorded Solid (%) 3 week −20° C. belonging to `CC(C)(C)OC(=O)[C@@H](CCCOS(=O)(=O)c1c(Cl)cc(Cl)cc1Cl)C[C@H](NC(c1ccccc1)(c1ccccc1)c1ccccc1)C(=O)OC(C)(C)C` and report it.
Response: 95.6

Request: // lookup Solid (%) 3 week −20° C. for `CC(C)(C)OC(=O)[C@@H](CCCOS(=O)(=O)c1cccc2cccnc12)C[C@H](NC(c1ccccc1)(c1ccccc1)c1ccccc1)C(=O)OC(C)(C)C`
Response: 88.3

Request: What does the data say about its Solid (%) 3 week −20° C.? Entry: `CC(C)(C)OC(=O)[C@@H](CCCOS(=O)(=O)c1ccc([N+](=O)[O-])c(C(F)(F)F)c1)C[C@H](NC(c1ccccc1)(c1ccccc1)c1ccccc1)C(=O)OC(C)(C)C`
Response: 93.1
